Documented melting point across a set of compounds

{"columns": ["COMPOUND", "melting point"],
 "data": [
  ["CCCCC(NS(=O)(=O)c1ccc(Cl)cc1)C(=S)Nc1ccc(CC(=O)OCC)cc1 (racemic)", "70 to 73 °C"],
  ["COC(=O)c1snc(-c2ccc(Cl)c(Cl)c2)c1C(=O)OC", "105 to 107 °C"],
  ["CCC1CC(=O)N(Cc2cccc(C(=O)NC3CCCC3)c2)N=C1c1ccc(OC)c(OC)c1 (stereo unspecified)", "54 °C"],
  ["Cc1ccc2c(c1)/C(=N\\NC(=O)NCc1ccccc1)C(=O)N2CCN(C(C)C)C(C)C", "159 to 160 °C"],
  ["Cc1c(C(=O)O)sc(=O)c2ccccc12", "243 to 245 °C"],
  ["COCCOc1ccc(COC(=O)NS(=O)(=O)c2ccc(Cl)cc2)c(Oc2ncc(C(F)(F)F)cc2Cl)c1", "112 to 115 °C"],
  ["CC(=O)OC1CSC(Oc2cnc(Cl)c(Cl)c2)C(OC(C)=O)C1OC(C)=O (stereo unspecified)", "128 °C"],
  ["O=c1nc(-c2ccccn2)sc2ccc(OCc3ccccc3)cc12", "198 to 199 °C"],
  ["CC[C@@H]1COC(=O)N1c1nc(-c2ccc(C#N)cc2)cs1", "153 to 157 °C"],
  ["CS(=O)(=O)Nc1cccc(-c2cccc(-c3nc(-c4ccc(C(F)(F)F)cc4)cc(C(F)(F)F)n3)c2)c1", "191 °C"],
  ["COc1ccc(-c2[nH]nc3c2C(=O)c2c(NC(=O)CN4CCN(CCN)CC4)cccc2-3)cc1", "> 300 °C"],
  ["O=C(Cl)c1ccc(NC(=O)c2ccccc2-c2ccccc2)cc1", "118 to 120 °C"],
  ["CC(O)CC1NCc2ccsc2-n2cccc21 (stereo unspecified)", "130 °C"],
  ["CCOc1ccc(Nc2ccc(Nc3ccc(OCC)cc3)c3c2C(=O)c2c(Nc4ccc(OCC)cc4)ccc(Nc4ccc(OCC)cc4)c2C3=O)cc1", "173 to 175 °C"],
  ["COC(=O)CCOc1ccccc1CNC(=O)C1Cc2ccccc2N1S(=O)(=O)c1ccc(-c2cccc(C(F)(F)F)c2)cc1 (stereo unspecified)", "131 °C"],
  ["CCn1cc(C(=O)O)c(=O)c2cc(F)c(N3CCC(CNCCO)C3)c(F)c21 (stereo unspecified)", "215 to 216 °C"]
]}

###

Documented melting point across a set of compounds

{"columns": ["COMPOUND", "melting point"],
 "data": [
  ["CC[C@@H](C)[C@H]1c2ccccc2-c2ccccc2N1S(=O)(=O)c1ccc(O)cc1 (relative stereo)", "115 to 118 °C"],
  ["O=C(O)CN1C(=O)C(=CCCCCl)SC1=S", "155 to 157 °C"],
  ["O=S=Nc1ccc(C(=O)Cl)cc1", "31 °C"],
  ["O=Cc1c(Br)ccc2cc3c(cc12)OCO3", "165 to 166 °C"],
  ["O=Cc1nn(-c2ccc([N+](=O)[O-])cc2)c2c1CCCC2", "147 to 148 °C"],
  ["Cc1nc(Cc2ccc([N+](=O)[O-])cc2)no1", "66 to 67 °C"],
  ["O=C1c2ccccc2C(=O)N1CCOCCl", "69 to 72 °C"],
  ["CCC(=O)c1cc(Cl)c(Cl)c2c1OCC(C(=O)O)O2 (stereo not drawn)", "229 to 231 °C"],
  ["CCOC(=O)C(=Cc1cccn2cc(C)nc12)N=[N+]=[N-]", "121 to 123 °C"],
  ["CC(C)=C1C(=O)N(c2cc(F)c(C#N)cc2F)C(=O)C1=C(C)C", "144 °C"],
  ["CCOC(=O)C=Cc1cc([N+](=O)[O-])ccc1C", "44 °C"],
  ["COc1cc(CCCC2OC(=O)NC2=O)ccc1OCc1nc(-c2ccccc2)sc1C (stereo not drawn)", "128 to 129 °C"],
  ["COCOCc1nc2nc(O)cnc2c(=O)[nH]1", "224 to 226 °C"]
]}

###

{"columns": ["MOLECULE", "melting point"],
 "data": [
  ["CC(C)c1cc(C(C)C)c(OS(=O)(=O)CC(=O)N(Cc2ccccc2)Cc2ccccc2)c(C(C)C)c1", "107 to 110 °C"],
  ["CCCCCCCCCCc1ccc2ccc(OC)cc2c1", "29.9 to 30.8 °C"],
  ["O=C(NCC1CCCC1)NC1CCN(CC23CC(c4ccccc42)c2ccccc23)CC1", "197 to 198 °C"],
  ["CC(C)Oc1ccc(-c2nc(O)c(C(=O)O)s2)cc1", "126 to 127 °C"],
  ["O=C1C[C@@H](COS(=O)(=O)c2ccccc2)N1", "102 to 105 °C"],
  ["CC(C)n1c(CCC2C[C@@H](O)CC(=O)O2)c(-c2ccc(F)cc2)c(-c2ccccc2)c1C(=O)Nc1ccccc1 (some centres undefined)", "128 to 129 °C"],
  ["C(=C\\c1nc(COc2ccc(CCCn3ccnc3)cc2)co1)/c1ccco1", "122 to 123 °C"],
  ["CCc1cccc(C)c1CNc1cc(C(=O)OC)cn2nc(C)nc12", "140 °C"],
  ["O=C(CCc1ccccc1)N[C@H]1C[C@H](C(=O)O)Nc2cc(Cl)cc(Cl)c21 (relative stereo)", "188 °C"],
  ["Cc1cc(Cl)c2ccc(Cl)cc2c1CCC=O", "104 to 106 °C"],
  ["Fc1c(F)c(F)c(CSc2ncccn2)c(F)c1F", "89 to 92 °C"],
  ["O=C(O)CCCn1ccc(=O)c(OCc2ccccc2)c1C(O)c1ccccc1 (centres undefined)", "205 to 210 °C"],
  ["Cc1c(C(=O)O)sc2ccc(Br)cc12", "> 300 °C"],
  ["COc1ccccc1C(O)c1cccc2c1ccn2C (centres undefined)", "95 °C"]
]}

###

Documented melting point across a set of molecules

{"columns": ["MOLECULE", "melting point"],
 "data": [
  ["CC(C)(C)C(=O)C(Cl)NC(=O)c1ccc(Cl)cc1 (stereo unspecified)", "132 to 135 °C"],
  ["Cc1nc2ccccc2n2cnc(-c3nc(C4CC4)no3)c12", "188 to 189 °C"],
  ["Nc1ncnc2c1c(-c1ccc(NS(=O)(=O)c3ccccc3)c(O)c1)cn2C1CCCC1", "265 to 267 °C"],
  ["Cc1c(-c2c[nH]c3c(-c4ccccc4)cccc23)nc2ccc(F)cc2c1C(=O)O", "148 to 150 °C"],
  ["N#CCc1ccccc1Sc1ccc(Cl)c(C(F)(F)F)c1", "69 to 70 °C"],
  ["COC=C(C(=O)OC)N(C)c1ccnc(-c2ccccc2)n1", "152 to 154 °C"],
  ["Cc1csc(COc2nn3c(-c4ccccc4)nnc3cc2-c2ccccc2)n1", "177 °C"],
  ["Cc1cccc(-c2nc3ccc(N(C)C)nn3c2-c2ccnc(NC3CCCCC3)c2)c1", "191 to 192 °C"],
  ["CC(Cc1cccc(Cl)c1)(NC=O)c1ccccc1 (stereo unspecified)", "108 to 109 °C"],
  ["COC(=O)c1ccc(S(=O)(=O)C(Cn2ccnc2)c2ccccc2OC)cc1 (stereo unspecified)", "150 to 151 °C"],
  ["Nc1cc(C(=O)O)cc(OCc2ccc(Cl)cc2)c1C(=O)c1ccccc1", "248 to 249 °C"],
  ["CCCc1c(C(=O)C(C)C)c2ccc(CC(=O)OC)cc2n1Cc1cc2c(cc1Cl)OCO2", "119 to 120 °C"],
  ["CCN(CC)NC(C)=O", "47.5 to 49.5 °C"],
  ["ClCc1ncc(-c2ccccc2)c2ccccc12", "101 to 102 °C"],
  ["CC(C)(C)c1cc(C=C2SCN(C3CC3)C2=O)cc(C(C)(C)C)c1O", "162 to 164 °C"],
  ["N#Cc1ccc(N2CCCN(c3ccnc4sc(C(N)=O)c(N)c34)CC2)cc1", "151 to 153 °C"]
]}

###

{"columns": ["COMPOUND", "melting point"],
 "data": [
  ["COc1ccc2c(c1)c(C(C)=NOC1CCCCO1)c(C)n2C(=O)c1ccc(Cl)cc1 (stereo not given)", "115 to 119 °C"],
  ["COc1cc(C)c(Br)cc1OCc1ccccc1", "110 to 111 °C"],
  ["CC12CCC1(C)C(=O)OC2=O (stereo not given)", "84 to 86 °C"],
  ["C=C(CCCCCCCCCCCCCC)C(=O)O", "49.5 to 50 °C"],
  ["Cc1nc2c(c(=O)[nH]1)-c1ccc(Cl)cc1C(c1ccccc1)=NC2", "245 to 248 °C"]
]}
